# run-description: A CellTox Green Cytotoxicity Assay to monitor cytotoxicity in HepG2 cells - 16 hour (AID 1224876); also: nearly all actives have a fitted effect of over 45% in size
# run-parameters: CellTox Green fluorescence; series mostly up to 76.8 µM
# Description: National Center for Advancing Translational Sciences [NCATS] NIH Chemical Genomics Center [NCGC] U.S. Environmental Protection Agency [EPA] National Institutes of Environmental Health Sciences [NIEHS] National Toxicology Program [NTP] Cell-based models are critical for drug discovery. […] Viable cells produce no appreciable increases in fluorescence. Therefore, the fluorescence signal produced by the binding interaction with dead cell DNA is proportional to cytotoxicity. […]
Records with an inconclusive call do not appear. Active and inactive are the calls of the source. Calls follow the shape of the dose curve; as a rule, active = well fitted activation curve with a large enough effect in the repeat runs; inconclusive = weak or mixed curves; inactive = flat fitted curve, though single readings scatter.
Possible outcomes: class 1 (active), class 0 (inactive)

>  <molecule>
CC1(C)CC(=O)CC(C)(C)N1[O]

>  <qualitative-label>
class 0

$$$$
>  <molecule>
CCCCC(CC)COC(=O)c1c(Br)c(Br)c(Br)c(Br)c1C(=O)OCC(CC)CCCC (configuration not stated)

>  <qualitative-label>
class 0

$$$$
>  <molecule>
O=C(O)c1cc(Cl)ccc1Cl

>  <qualitative-label>
class 0

$$$$
>  <molecule>
O=C(O)C(O)C(O)C(=O)O (configuration not stated)

>  <qualitative-label>
class 0

$$$$
>  <molecule>
CCC1(C2=NCCN2)Cc2ccccc2O1 (configuration not stated)

>  <qualitative-label>
class 0

$$$$
>  <molecule>
Cc1nc(N(C)C)nc(OC(=O)N(C)C)c1C

>  <qualitative-label>
class 0

$$$$
>  <molecule>
O=C=NC1CCCCC1

>  <qualitative-label>
class 0

$$$$
>  <molecule>
CCOC(=O)NC(O)C(Cl)(Cl)Cl (configuration not stated)

>  <qualitative-label>
class 0

$$$$
>  <molecule>
Oc1cccc(Cl)c1

>  <qualitative-label>
class 0

$$$$
>  <molecule>
O=C(NCNC(=O)NC1C(=O)NC(=O)N1CO)NC1C(=O)NC(=O)N1CO (configuration not stated)

>  <qualitative-label>
class 0

$$$$
>  <molecule>
CCCCC(CC)CO[N+](=O)[O-] (configuration not stated)

>  <qualitative-label>
class 0

$$$$
>  <molecule>
CCSCc1ccccc1OC(=O)NC

>  <qualitative-label>
class 0

$$$$
>  <molecule>
C=CCc1ccc(OC(=O)Cc2ccccc2)c(OC)c1

>  <qualitative-label>
class 0

$$$$
>  <molecule>
CCc1ccccc1N

>  <qualitative-label>
class 0

$$$$
>  <molecule>
COP(=O)(OC)OC(Br)C(Cl)(Cl)Br (configuration not stated)

>  <qualitative-label>
class 0

$$$$
>  <molecule>
ClCc1ccccc1Cl

>  <qualitative-label>
class 0

$$$$
>  <molecule>
CC(CC(C(N)=O)(c1ccccc1)c1ccccc1)N(C)C (configuration not stated)

>  <qualitative-label>
class 0

$$$$
>  <molecule>
NNCCO

>  <qualitative-label>
class 0

$$$$
>  <molecule>
c1ccc2sc(SNC3CCCCC3)nc2c1

>  <qualitative-label>
class 0

$$$$
>  <molecule>
COc1ccc(C(O)(c2cncnc2)C2CC2)cc1 (configuration not stated)

>  <qualitative-label>
class 0

$$$$
>  <molecule>
COc1ccccc1N1CCNCC1

>  <qualitative-label>
class 0

$$$$
>  <molecule>
Cc1nnc(-c2ccccc2)c(=O)n1N

>  <qualitative-label>
class 0

$$$$
>  <molecule>
Cc1cnc(C2=NC(C)(C(C)C)C(=O)N2)c(C(=O)O)c1 (configuration not stated)

>  <qualitative-label>
class 0

$$$$
>  <molecule>
CCOc1cccc(C2(N3CCN(c4ccccc4)CC3)CCC(C)CC2)c1 (configuration not stated)

>  <qualitative-label>
class 0

$$$$
>  <molecule>
COC(=O)Cc1ccccc1

>  <qualitative-label>
class 0

$$$$
>  <molecule>
O=S(=O)(c1ccccc1)c1ccccc1

>  <qualitative-label>
class 0

$$$$
>  <molecule>
C=CC(=O)OCC

>  <qualitative-label>
class 0

$$$$
>  <molecule>
CCCCC#N

>  <qualitative-label>
class 0

$$$$
>  <molecule>
CC(C)[C@@H](C(=O)O[C@@H](C#N)c1cccc(Oc2ccccc2)c1)c1ccc(Cl)cc1

>  <qualitative-label>
class 0

$$$$
>  <molecule>
C1CS1

>  <qualitative-label>
class 0

$$$$
>  <molecule>
CCC[N+](CCC)(CCC)CCC

>  <qualitative-label>
class 0

$$$$
>  <molecule>
N#CC(C#N)=Cc1ccc(O)c(O)c1

>  <qualitative-label>
class 0

$$$$
>  <molecule>
CN1C[C@H](C(=O)N[C@]2(C)O[C@@]3(O)[C@@H]4CCCN4C(=O)[C@H](Cc4ccccc4)N3C2=O)C=C2c3cccc4[nH]cc(c34)C[C@H]21

>  <qualitative-label>
class 0

$$$$
>  <molecule>
CC(=O)OC(c1ccccc1)C(Cl)(Cl)Cl (configuration not stated)

>  <qualitative-label>
class 1

$$$$
>  <molecule>
CCCC[P+](CC)(CCCC)CCCC (tested in a mixture with another compound)

>  <qualitative-label>
class 0

$$$$
>  <molecule>
CCC1(CC)C(=O)NC(=O)NC1=O

>  <qualitative-label>
class 0

$$$$
>  <molecule>
Nc1ccc2c(c1)Cc1ccccc1-2

>  <qualitative-label>
class 0

$$$$

From: PubChem BioAssay (Tox21)
